tested on: Strep. Faecalis HH 34358; assay: MIC in vitro (Table 1), Strep. Faecalis HH 34358; format: cell-based; conditions: Enterococcus faecalis, in vitro, Strep. Faecalis HH 34358; read-out: MIC
Readout label: log10 MIC (log10 of the value in µg/mL)

# Compound, Obs value
measured = [
    ("O=C(O)Cn1nnnc1SCC1=C(C(=O)O)N2C(=O)C(NC(=O)CSC(F)(F)F)[C@H]2SC1 (some centres unmarked)", 2.00),
    ("N[C@@H](C(=O)NC1C(=O)N2C(C(=O)O)=C(CSc3nnnn3CC(=O)O)CS[C@H]12)c1ccc(O)cc1 (some centres unmarked)", 2.00),
    ("NC(=O)CCCn1nnnc1SCC1=C(C(=O)O)N2C(=O)C(NC(=O)CSC(F)(F)F)[C@H]2SC1 (some centres unmarked)", 0.80),
    ("NC(=O)CCn1nnnc1SCC1=C(C(=O)O)N2C(=O)C(NC(=O)[C@H](N)c3ccc(O)cc3)[C@H]2SC1 (some centres unmarked)", 1.40),
    ("Cn1nnnc1SCC1=C(C(=O)O)N2C(=O)C(NC(=O)C(O)c3ccccc3)[C@H]2SC1 (some centres unmarked) [cephamandole, reference compound]", 0.36),
    ("CN(C)C(=O)Cn1nnnc1SCC1=C(C(=O)O)N2C(=O)C(NC(=O)[C@H](N)c3ccc(O)cc3)C2SC1 (some centres unmarked)", 1.40),
    ("NC(=O)CCn1nnnc1SCC1=C(C(=O)O)N2C(=O)C(NC(=O)[C@H](O)c3ccccc3)[C@H]2SC1 (some centres unmarked)", 1.10),
    ("CN(C)C(=O)Cn1nnnc1SCC1=C(C(=O)O)N2C(=O)C(NC(=O)[C@H](O)c3ccccc3)C2SC1 (some centres unmarked)", 1.40),
    ("NC(=O)Cn1nnnc1SCC1=C(C(=O)O)N2C(=O)C(NC(=O)CSC(F)(F)F)[C@H]2SC1 (some centres unmarked)", 1.40),
    ("NC(=O)Cn1nnnc1SCC1=C(C(=O)O)N2C(=O)C(NC(=O)[C@H](O)c3ccccc3)[C@H]2SC1 (some centres unmarked)", 1.40),
    ("O=C(O)CCCCCn1nnnc1SCC1=C(C(=O)O)N2C(=O)C(NC(=O)[C@H](O)c3ccccc3)[C@H]2SC1 (some centres unmarked)", 1.40),
    ("NC(=O)CCCn1nnnc1SCC1=C(C(=O)O)N2C(=O)C(NC(=O)[C@H](O)c3ccccc3)[C@H]2SC1 (some centres unmarked)", 1.70),
    ("O=C(O)Cn1nnnc1SCC1=C(C(=O)O)N2C(=O)C(NC(=O)[C@H](O)c3ccccc3)[C@H]2SC1 (some centres unmarked)", 2.00),
    ("O=C(O)CCn1nnnc1SCC1=C(C(=O)O)N2C(=O)C(NC(=O)[C@H](O)c3ccccc3)[C@H]2SC1 (some centres unmarked)", 1.70),
    ("CNC(=O)Cn1nnnc1SCC1=C(C(=O)O)N2C(=O)C(NC(=O)[C@H](O)c3ccccc3)[C@H]2SC1 (some centres unmarked)", 1.40),
    ("O=C(O)CCn1nnnc1SCC1=C(C(=O)O)N2C(=O)C(NC(=O)CSC(F)(F)F)[C@H]2SC1 (some centres unmarked)", 1.70),
    ("NC(=O)Cn1nnnc1SCC1=C(C(=O)O)N2C(=O)C(NC(=O)[C@H](N)c3ccc(O)cc3)[C@H]2SC1 (some centres unmarked)", 1.70),
]

###

system: E. coli HH 33779; test: MIC in vitro (Table 1), E. coli HH 33779; type: cell-based; details: Escherichia coli, HH33779, in vitro, E. coli HH 33779; read-out: MIC
Each item that follows carries a reported MIC.

# Compound, MIC (µg/mL)
records = [
    ("NC(=O)CCCn1nnnc1SCC1=C(C(=O)O)N2C(=O)C(NC(=O)CSC(F)(F)F)[C@H]2SC1 (stereo partly drawn)", 0.8),
    ("O=C(O)Cn1nnnc1SCC1=C(C(=O)O)N2C(=O)C(NC(=O)CSC(F)(F)F)[C@H]2SC1 (stereo partly drawn)", 6),
    ("NC(=O)CCn1nnnc1SCC1=C(C(=O)O)N2C(=O)C(NC(=O)CSC(F)(F)F)[C@H]2SC1 (stereo partly drawn)", 1.6),
    ("NC(=O)CCCn1nnnc1SCC1=C(C(=O)O)N2C(=O)C(NC(=O)[C@H](O)c3ccccc3)[C@H]2SC1 (stereo partly drawn)", 3.1),
    ("O=C(O)Cn1nnnc1SCC1=C(C(=O)O)N2C(=O)C(NC(=O)[C@H](O)c3ccccc3)[C@H]2SC1 (stereo partly drawn)", 6.3),
    ("NC(=O)Cn1nnnc1SCC1=C(C(=O)O)N2C(=O)C(NC(=O)CSC(F)(F)F)[C@H]2SC1 (stereo partly drawn)", 3.1),
]

###

system: Kleb. pneumo. 4200; experiment: In vivo mouse protection (Table 2), Kleb. pneumo. 4200; settings: sc, Kleb. pneumo. 4200, s.c.
The label is met for ED50 below 1 mg/kg and not met for ED50 equal to or exceeding 1 mg/kg.

# Molecule, Assigned category
rows = [
    ("O=C(O)CCn1nnnc1SCC1=C(C(=O)O)N2C(=O)C(NC(=O)[C@H](O)c3ccccc3)[C@H]2SC1 (stereo partly drawn)", "met"),
    ("NC(=O)CCCn1nnnc1SCC1=C(C(=O)O)N2C(=O)C(NC(=O)[C@H](O)c3ccccc3)[C@H]2SC1 (stereo partly drawn)", "met"),
    ("NC(=O)Cn1nnnc1SCC1=C(C(=O)O)N2C(=O)C(NC(=O)CSC(F)(F)F)[C@H]2SC1 (stereo partly drawn)", "met"),
    ("O=C(O)CCn1nnnc1SCC1=C(C(=O)O)N2C(=O)C(NC(=O)CSC(F)(F)F)[C@H]2SC1 (stereo partly drawn)", "not met"),
    ("Cn1nnnc1SCC1=C(C(=O)O)N2C(=O)C(NC(=O)C(O)c3ccccc3)[C@H]2SC1 (stereo partly drawn) [cephamandole, reference compound]", "met"),
    ("CN(C)C(=O)Cn1nnnc1SCC1=C(C(=O)O)N2C(=O)C(NC(=O)[C@H](O)c3ccccc3)C2SC1 (stereo partly drawn)", "not met"),
]

###

tested on: S. aureus SK 23390; assay: MIC in vitro (Table 1), S. aureus SK 23390; assay type: cell-based; details: Staphylococcus aureus, SK23390, in vitro, S. aureus SK 23390; read-out: MIC
Readout label: MIC (µg/mL)

# Compound, Obs value
measured = [
    ("N[C@@H](C(=O)NC1C(=O)N2C(C(=O)O)=C(CSc3nnnn3CC(=O)O)CS[C@H]12)c1ccc(O)cc1 (stereo partly shown) [II]", 12.5),
    ("NC(=O)CCCn1nnnc1SCC1=C(C(=O)O)N2C(=O)C(NC(=O)CSC(F)(F)F)[C@H]2SC1 (stereo partly shown) [XX]", 0.2),
    ("NC(=O)Cn1nnnc1SCC1=C(C(=O)O)N2C(=O)C(NC(=O)[C@H](O)c3ccccc3)[C@H]2SC1 (stereo partly shown) [V]", 3.1),
    ("O=C(O)Cn1nnnc1SCC1=C(C(=O)O)N2C(=O)C(NC(=O)CSC(F)(F)F)[C@H]2SC1 (stereo partly shown) [XVIII]", 3),
    ("Cn1nnnc1SCC1=C(C(=O)O)N2C(=O)C(NC(=O)C(O)c3ccccc3)[C@H]2SC1 (stereo partly shown) [cephamandole, reference compound]", 0.6),
    ("NC(=O)CCn1nnnc1SCC1=C(C(=O)O)N2C(=O)C(NC(=O)[C@H](O)c3ccccc3)[C@H]2SC1 (stereo partly shown) [VII]", 0.8),
    ("NC(=O)CCCn1nnnc1SCC1=C(C(=O)O)N2C(=O)C(NC(=O)[C@H](O)c3ccccc3)[C@H]2SC1 (stereo partly shown) [XI]", 3.1),
    ("O=C(O)Cn1nnnc1SCC1=C(C(=O)O)N2C(=O)C(NC(=O)[C@H](O)c3ccccc3)[C@H]2SC1 (stereo partly shown) [I]", 3.1),
    ("NC(=O)Cn1nnnc1SCC1=C(C(=O)O)N2C(=O)C(NC(=O)[C@H](N)c3ccc(O)cc3)[C@H]2SC1 (stereo partly shown) [VI]", 6.3),
    ("NC(=O)CCn1nnnc1SCC1=C(C(=O)O)N2C(=O)C(NC(=O)[C@H](N)c3ccc(O)cc3)[C@H]2SC1 (stereo partly shown) [X]", 12.5),
]

###

System: E. coli SK 12140
Test: MIC in vitro (Table 1), E. coli SK 12140
Assay type: cell-based
Settings: Escherichia coli, SK12140, in vitro, read-out: MIC
Source text: Compound names corresponding to numbers are given in the experimental section. For comparative purposes, data for cephamandole, which is 7-mandelamido-3-(1-methyltetrazol-5-ylthiomethyl)-3-cephem-4-carboxylic acid, is also given in Tables 1 and 2.

# Compound, MIC, µg/mL
records = [
    ("NC(=O)Cn1nnnc1SCC1=C(C(=O)O)N2C(=O)C(NC(=O)[C@H](O)c3ccccc3)[C@H]2SC1 (stereo partly shown) [V]", 0.8),
    ("O=C(O)CCCCCn1nnnc1SCC1=C(C(=O)O)N2C(=O)C(NC(=O)[C@H](O)c3ccccc3)[C@H]2SC1 (stereo partly shown) [XIII]", 1.6),
    ("NC(=O)CCn1nnnc1SCC1=C(C(=O)O)N2C(=O)C(NC(=O)[C@H](O)c3ccccc3)[C@H]2SC1 (stereo partly shown) [VII]", 0.8),
    ("NC(=O)CCCn1nnnc1SCC1=C(C(=O)O)N2C(=O)C(NC(=O)CSC(F)(F)F)[C@H]2SC1 (stereo partly shown) [XX]", 0.8),
    ("NC(=O)Cn1nnnc1SCC1=C(C(=O)O)N2C(=O)C(NC(=O)[C@H](N)c3ccc(O)cc3)[C@H]2SC1 (stereo partly shown) [VI]", 6.3),
    ("O=C(O)CCn1nnnc1SCC1=C(C(=O)O)N2C(=O)C(NC(=O)[C@H](O)c3ccccc3)[C@H]2SC1 (stereo partly shown) [VIII]", 1.6),
    ("CN(C)C(=O)Cn1nnnc1SCC1=C(C(=O)O)N2C(=O)C(NC(=O)[C@H](N)c3ccc(O)cc3)C2SC1 (stereo partly shown) [IX]", 12.5),
]

Recorded values, source patent US4220644A.
